The values you see were collected from patent US20260335277A1.

- assay-procedure: Aqueous solubility
- Format: physicochemical
- settings: pH 9.0; read-out: semi thermodynamic solubility
- Procedure: Complementing the toxicity profiling, ADME properties of the lead dehalogenil were determined. This had not been possible for the first generation frontrunner ChB1-Epo2 or the natural product ChA because of their poor limit of detection. […] Across species (mouse, rat, human), metabolic stability is high while plasma stability is moderate. Besides, no hemolysis and no inhibition of the metabolically important enzyme CYP3A4 was observed by both dehalogenil and ChA. […]
test-readout: solubility thermodynamic (µM)

# compound, value
measured = [
    ("CC1=CC(C)C2C(C=CC3C(C)C=CC=CC(C)OC(=O)C(C)C(=O)CC(=O)C32)C1 (stereo not shown)", 16.5),
]

----------
- Tested on: S. epidermidis DSM-28765
- assay-procedure: MIC testing (broth microdilution, EUCAST)
- Assay type: cell-based
- settings: Staphylococcus epidermidis, DSM28765, S. epidermidis DSM-28765; read-out: MIC S. epiderm.
Some compounds, each annotated with its measured MIC.
test-readout: MIC (µg/mL)

# compound, censoring-sign, value
data = [
    ("CC1=C[C@@H](C)[C@H]2[C@@H]3C(=O)[C@@](F)(Cl)C(=O)[C@H](C)C(=O)O[C@@H](C)/C=C/C=C\\[C@@H](C)[C@@H]3C=C[C@@H]2C1", ">", 6.4),
    ("CC1=CC(C)C2C(C=CC3C(C)C=CC=CC(C)OC(=O)CC(=O)CC(=O)C32)C1 (stereo not drawn)", "=", 3.2),
    ("CC1=C[C@@H](C)[C@H]2[C@@H]3C(=O)[C@@](C)(Cl)C(=O)[C@H](C)C(=O)O[C@@H](C)/C=C/C=C\\[C@@H](C)[C@@H]3C=C[C@@H]2C1", ">", 1.6),
    ("CC1=CC(C)C2C(C=CC3C(C)C=CC=CC(C)OC(=O)C(C)C(=O)CC(=O)C32)C1 (stereo not drawn)", "=", 0.2),
    ("CC1=C[C@@H](C)[C@H]2[C@@H]3C(=O)C(Cl)(Cl)C(=O)[C@H](C)C(=O)O[C@@H](C)/C=C/C=C\\[C@@H](C)[C@@H]3C=C[C@@H]2C1 [ChA, reference compound]", "=", 0.05),
    ("C=C1C[C@H]2C=C[C@@H]3[C@@H](C(=O)C(Cl)(Cl)C(=O)[C@H](C)C(=O)O[C@@H](C)/C=C/C=C\\[C@H]3C)[C@@H]2[C@H](C)C1Cl (stereo partly drawn)", "=", 0.4),
]

----------
- assay-procedure: In vivo PK after subcutaneous application (50% ClearSol/PBS pH 7.4)
- Parameters: species or system mouse
- settings: mouse, in vivo; mice, 5 mg/kg sc; n = 3

# molecule, endpoint-unit, AUC(0-t)
data = [
    ("CC1=CC(C)C2C(C=CC3C(C)C=CC=CC(C)OC(=O)C(C)C(=O)CC(=O)C32)C1 (stereo not shown) [dehalogenil]", "ng·h/mL", 2690),
]

----------
- assay-procedure: In vivo PK after peroral administration (soy oil)
- Parameters: species or system mouse
- settings: mouse, plasma, po; mice, 50 mg/kg; mean (n = 3)

# compound, AUC(0-t), ng·h/mL
rows = [
    ("CC1=CC(C)C2C(C=CC3C(C)C=CC=CC(C)OC(=O)C(C)C(=O)CC(=O)C32)C1 (stereo not shown)", 8360),
]

----------
- assay-procedure: In vivo PK, peroral vs. intravenous administration, peroral bioavailability
- Set-up: species or system mouse
- settings: mouse, in vivo; mice, 10 mg/kg po, mean (n = 3)

# compound, Cmax / ng/mL
measured = [
    ("CC1=CC(C)C2C(C=CC3C(C)C=CC=CC(C)OC(=O)C(C)C(=O)CC(=O)C32)C1 (stereo not shown)", 101),
]

----------
- assay-procedure: Inhibition of CYP3A4
- Type: in vitro ADME
- settings: cyp3a4
pIC50: −log10 of the molar value.
test-readout: pIC50

# molecule, value
records = [
    ("CC1=CC(C)C2C(C=CC3C(C)C=CC=CC(C)OC(=O)C(C)C(=O)CC(=O)C32)C1 (stereo not shown)", 4.79),
]

----------
- assay-procedure: In vivo PK, peroral vs. intravenous administration, peroral bioavailability
- Parameters: species or system mouse
- settings: mouse, in vivo; rodents, oral; read-out: oral bioavailability
test-readout: bioavailability

# molecule, test-readout, value
measured = [
    ("CC1=CC(C)C2C(C=CC3C(C)C=CC=CC(C)OC(=O)C(C)C(=O)CC(=O)C32)C1 (stereo not shown)", "bioavailability", "~10%"),
]

----------
- Test system: E. faecium DSM-17050 (vancomycin-resistant, VRE)
- assay-procedure: MIC testing (broth microdilution, EUCAST)
- Type: cell-based
- settings: Enterococcus faecium
Some molecules, each annotated with its measured MIC.
test-readout: MIC (µg/mL)

# molecule, test-readout, endpoint-unit, value
records = [
    ("CC1=CC(C)C2C(C=CC3C(C)C=CC=CC(C)OC(=O)C(C)C(=O)CC(=O)C32)C1 (centres unmarked) [dehalogenil]", "MIC", "µg/mL", 0.1),
    ("CC1=C[C@@H](C)[C@H]2[C@@H]3C(=O)[C@@](C)(Cl)C(=O)[C@H](C)C(=O)O[C@@H](C)/C=C/C=C\\[C@@H](C)[C@@H]3C=C[C@@H]2C1 [ChA-4′Me]", "MIC", "µg/mL", 0.8),
    ("CC1=C[C@@H](C)[C@H]2[C@@H]3C(=O)[C@@](F)(Cl)C(=O)[C@H](C)C(=O)O[C@@H](C)/C=C/C=C\\[C@@H](C)[C@@H]3C=C[C@@H]2C1 [ChA-4′F]", "MIC", "µg/mL", 1.6),
    ("C=C1C[C@H]2C=C[C@@H]3[C@@H](C(=O)C(Cl)(Cl)C(=O)[C@H](C)C(=O)O[C@@H](C)/C=C/C=C\\[C@H]3C)[C@@H]2[C@H](C)C1Cl (some centres unmarked) [ChA-9′Cl]", "MIC", "µg/mL", 0.2),
    ("CC1=CC(C)C2C(C=CC3C(C)C=CC=CC(C)OC(=O)CC(=O)CC(=O)C32)C1 (centres unmarked) [dehalogenil-2′DM, 2′Demethyldehalogenil]", "MIC", "µg/mL", 0.8),
]

----------
- assay-procedure: In vivo PK, peroral vs. intravenous administration, peroral bioavailability
- Design: species or system mouse
- settings: mouse, in vivo; mice, 10 mg/kg po, mean (n = 3)

# compound, endpoint-unit, AUC(0-inf)
records = [
    ("CC1=CC(C)C2C(C=CC3C(C)C=CC=CC(C)OC(=O)C(C)C(=O)CC(=O)C32)C1 (stereo not shown)", "ng·h/mL", 1540),
]

----------
- assay-procedure: In vivo PK after subcutaneous application (50% ClearSol/PBS pH 7.4)
- Parameters: species or system mouse
- settings: mouse, in vivo; mice, 10 mg/kg sc; n = 3

# molecule, Tmax, h
records = [
    ("CC1=CC(C)C2C(C=CC3C(C)C=CC=CC(C)OC(=O)C(C)C(=O)CC(=O)C32)C1 (stereo not shown) [dehalogenil]", 3),
]

----------
- Tested on: zebrafish larvae
- assay-procedure: Toxicity in zebrafish larvae (MTC / IC50)
- Assay type: in vivo
- settings: zebrafish IC50 vs P. falciparum 3D7
Some compounds, each annotated with its measured Selectivity Index P. falc 3D7.

# compound, censoring-sign, Selectivity Index P. falc 3D7
rows = [
    ("CC1C=CC=CC(C)C2C=CC3CC4(C)OC4C(C)C3C2C(=O)CC(=O)C(C)C(=O)O1 (stereo not shown) [Dehalogenil-Epo2]", "=", 6.2),
    ("CC1=CC(C)C2C(C=CC3C(C)C=CC=CC(C)OC(=O)C(C)C(=O)CC(=O)C32)C1 (stereo not shown) [dehalogenil]", "=", 5479.6),
    ("CC1=C[C@@H](C)[C@H]2[C@@H]3C(O)=C(SS)C(=O)[C@H](C)C(=O)O[C@@H](C)/C=C/C=C\\[C@@H](C)[C@@H]3C=C[C@@H]2C1 [thiotonil]", ">", 892.9),
    ("CC1=CC(C)C2C(C=CC3C(C)C=CC=CC(C)OC(=O)C(C)(C)C(=O)C(Cl)=C(O)C32)C1 (stereo not shown) [ChB1-2′Me]", "=", 114.0),
]

----------
- assay-procedure: Plasma stability
- Type: in vitro ADME
- settings: human, plasma; read-out: plasma stability t1/2 (converted)
test-readout: half-life (h)

# compound, value
data = [
    ("CC1=CC(C)C2C(C=CC3C(C)C=CC=CC(C)OC(=O)C(C)C(=O)CC(=O)C32)C1 (stereo not shown) [dehalogenil]", 1.4),
]

----------
- assay-procedure: In vivo PK after peroral administration (soy oil)
- Parameters: species or system mouse
- settings: mouse, plasma, po; mice, 50 mg/kg; mean (n = 3)

# compound, endpoint-unit, Cmax
records = [
    ("CC1=CC(C)C2C(C=CC3C(C)C=CC=CC(C)OC(=O)C(C)C(=O)CC(=O)C32)C1 (stereo not shown) [dehalogenil]", "ng/mL", 579),
]
